- testName: Binding affinity to tubulin (unknown origin) by isothermal titration calorimetric analysis
- Set-up: species or system Homo sapiens
measuredMetric: Kd (nM)
Only the number, expressed in nM, is required.

**Q:** Given the compound Cc1ncc(C(=O)Nc2ccc(-c3cccc(S(=O)(=O)C4CC4)c3)cn2)cn1 , what is its reported Kd?
**A:** 190
